Provide the reported growth of each item.
System: IGROV1 ovarian
assay_text: NCI-60 one-dose screen, 48 h (100 = growth as untreated, 0 = no growth, -100 = all killed)
test_settings: 10 µM
Procedure: Growth inhibition of the IGROV1 human tumor cell line is measured as a screen for anti-cancer activity. Cells are grown in 96 well plates and exposed to the test compound for 48 hours. Compounds are tested at a single concentration, which is 10^-5 M for most compounds. The reported endpoint is percent growth (GI% or GIPRCNT), where numbers from 0 - 100% represent growth inhibition, and numbers from -100% - 0 represent cell death. For example, a value of 40 represents 60% growth inhibition. […]
The panel holds about 83,000 compounds, 20% with a hit somewhere; the sample as a whole holds those more often.
One number for each entry, in %.

# annotated cases, reported growth shown
compound | reading
C=CC(=O)Nc1nc(-c2cccc(NS(=O)(=O)c3cccc4c(N(C)C)cccc34)c2)cs1 | -74.1
O=C1N/C(=N\c2nccs2)S/C1=C\c1cccs1 | 31.5
CO[C@@H]1CSSC1Cn1nc(-c2ccc(Oc3ccccc3)cc2)c2c(N)ncnc21 (stereo not given in full) | 53.1
O=C(N/N=C/c1ccc(B(O)O)o1)c1[nH]c2ccc(Br)cc2c1-c1ccccc1 | 51.8

Turning to the following compound.
Prompt: Given the entry `NC(=Nc1ccc(OCCCCCCCCn2ccnn2)cc1)c1ccccc1` , report its measured growth.
Completion: 28.9

* * *

System: OVCAR-4 ovarian
assay_text: NCI-60 one-dose screen, 48 h
test_settings: 10 µM
The panel holds about 83,000 compounds, 20% with a hit somewhere; the sample as a whole holds those more often. Activity calls are given as the source filed them. Rule for the calls: active = growth percent below 10; inactive = the rest.
The reply should be one of these categories: active, inactive

Please review the following examples before continuing.
compound | experimental_target | group_label
COc1ccc(C2NC(=S)NC(C)=C2C(=O)OC(C)C)cc1OC (centres undefined) | OVCAR-4 ovarian | inactive
CCN1CCN(c2ccc(NC(=O)Nc3ccc(-c4cc(C(=O)NC)c5ncccc5n4)cc3)cc2C(F)(F)F)CC1 | OVCAR-4 ovarian | active
Cn1c(O)c(N=Nc2nc(-c3cc4ccccc4oc3=O)cs2)c2cc(Br)ccc21 | OVCAR-4 ovarian | inactive
Cc1ccc2nc(-c3ccc(-c4nnc(SCC(=O)Nc5ccc(Cl)cc5)o4)cc3)[nH]c2c1 | OVCAR-4 ovarian | active
O=C(c1ccc(Cl)cc1)C1[C@H](c2ccc(Br)cc2)[C@@H](c2ccccc2)NC12C(=O)Nc1ccccc12 (some centres undefined) | OVCAR-4 ovarian | inactive

Prompt: Hey, what did the test say about `O=C(Nc1nc2ccc([N+](=O)[O-])cc2s1)Nc1cc(Cl)ccc1I` ?
Completion: active

Prompt: Entry `COc1ccc(C(=O)/C=C/c2ccc(Cl)c(C(F)(F)F)c2)cc1S(N)(=O)=O` : call = ?
Completion: active

Prompt: Fill in: this test's call for `CONC[C@]1(C)C=C2C(=O)[C@](C)(O)C3(CC3)C(C)=C2[C@H]1O` is ___
Completion: active

Prompt: Recorded call for `O=C(NO)c1ccc(-c2nc3ccc4[nH]ncc4c3c3c2CCCC3)cc1` ?
Completion: active

Prompt: Which outcome was assigned to `O=[N+]([O-])c1ccc(-c2nc(-c3ccccc3)c(-c3ccccc3)n2-c2ccc(S(=O)(=O)Nc3ncccn3)cc2)cc1` in this test?
Completion: inactive

Prompt: State the result this test recorded for `O=c1[nH][nH]c(Nc2ccccc2)c1N=Nc1ccc(F)cc1` .
Completion: inactive

Prompt: Would you mind telling me which call this test gave COc1cc2c(c(OC)c1OC)C(=O)CC(c1cccc(NC(=O)c3cccc(N)c3)c1)O2 (centres undefined) ?
Completion: inactive
